# test-details: Measurement of solubility in tetrahydrofuran
# Type: physicochemical
# details: tetrahydrofuran, 24 °C, organic solvent or mixture, thermodynamic from solid, tetrahydrofuran, 24±1° C.; read-out: Solubility in tetrahydrofuran
experimental-endpoint: solubility (µg/mL)

Examples from the recorded data:
The compound listed as CCCCc1ccc(C2=CC(=CC3=C([O-])/C(=C/c4cc(-c5ccc(CCCC)cc5)[s+]c(-c5ccc(CCCC)cc5)c4)C3=O)C=C(c3ccc(CCCC)cc3)S2)cc1 shows solubility equal to 1100

The compound listed as CCCCCCc1ccc(C2=CC(=CC3=C([O-])/C(=C/c4cc(-c5ccc(CCCCCC)cc5)[s+]c(-c5ccc(CCCCCC)cc5)c4)C3=O)C=C(c3ccc(CCCCCC)cc3)S2)cc1 [II-3, reference compound] shows solubility equal to 1100

I = CCc1ccc(C2=CC(=CC3=C([O-])/C(=C/c4cc(-c5ccc(CC)cc5)[s+]c(-c5ccc(CC)cc5)c4)C3=O)C=C(c3ccc(CC)cc3)S2)cc1
II = CC(C)(C)c1ccc(C2=CC(=CC3=C([O-])/C(=C/c4cc(-c5ccc(C(C)(C)C)cc5)[s+]c(-c5ccc(C(C)(C)C)cc5)c4)C3=O)C=C(c3ccc(C(C)(C)C)cc3)S2)cc1
III = Cc1ccc(C2=CC(=CC3=C([O-])/C(=C/c4cc(-c5ccc(C)cc5)[s+]c(-c5ccc(C)cc5)c4)C3=O)C=C(c3ccc(C)cc3)S2)cc1 [II-2, reference compound]
Query: Rank descending by solubility. Please express your ranking as an ordered list of the labels.
Result: II, I, III
